Each entry below carries its recorded TGI.
test system: RXF 393 renal; experiment: NCI tumour cell line growth inhibition, 48 h

Reference set (9 entries):
[[record]]
molecule = "COc1ccc(C(=O)C=C2NCCN2)cc1"
assaymetric = "TGI"
observedmeasurement = "> 100 µM"

[[record]]
molecule = "CN(Cc1cnc2nc(N)nc(N)c2n1)c1ccc(C(=O)NC(CCC(=O)O)C(=O)O)cc1 (stereo not given)"
assaymetric = "TGI"
observedmeasurement = "> 100 µM"

[[record]]
molecule = "O=C1C(c2ccccc2)=C(c2ccccc2)C(c2ccc(CCCCCCc3ccc(C4=C(c5ccccc5)C(=O)C(c5ccccc5)=C4c4ccccc4)cc3)cc2)=C1c1ccccc1"
assaymetric = "TGI"
observedmeasurement = "79.7 µM"

[[record]]
molecule = "CSCCCCCCCCCCOc1ccc(C=C2C(=C(C#N)C#N)c3ccccc3C2=C(C#N)C#N)cc1"
assaymetric = "TGI"
observedmeasurement = "35.1 µM"

[[record]]
molecule = "Cc1cc(C)c(C(=O)OC(c2ccccc2)C(c2ccccc2)N2CCOCC2)c(C)c1 (stereo not given)"
assaymetric = "TGI"
observedmeasurement = "> 100 µM"

[[record]]
molecule = "Cc1ccc(Nc2ccc(Nc3ccc(C)cc3)c3c2C(=O)c2c(O)ccc(O)c2C3=O)cc1"
assaymetric = "TGI"
observedmeasurement = "> 100 µM"

[[record]]
molecule = "CCc1cccc(C)c1NC(=O)NS(=O)(=O)c1ccc(C)cc1"
assaymetric = "TGI"
observedmeasurement = "> 100 µM"

[[record]]
molecule = "COc1cc2c(cc1OC)CCN=C2"
assaymetric = "TGI"
observedmeasurement = "> 100 µM"

[[record]]
molecule = "COc1ccc(/C=C(\\C#N)c2cc3ccccc3n2C)cc1"
assaymetric = "TGI"
observedmeasurement = "0.834 µM"


Endpoint output: TGI of `NNC(=O)c1n[nH]nc1SSc1n[nH]nc1C(=O)NN` . Value?
> 100 µM

====

test system: RXF 393 renal; assay: NCI tumour cell line growth inhibition, 48 h
assayMetric: TGI (µM)
# output: bare number, implied unit µM

Reference set (3 entries):
[[record]]
molecule = "O=[N+]([O-])c1ccccc1C1N2CCCCC2[C@@H]2c3[nH]c4ccccc4c3CCN12 (some centres undefined)"
assaymetric = "TGI"
observedmeasurement = 26.4

[[record]]
molecule = "Cc1[nH]c2ccccc2c1C=Nc1ccc(Oc2ccccc2)cc1"
assaymetric = "TGI"
observedmeasurement = 31.7

[[record]]
molecule = "COCN1C(=O)[C@@H]2CCCN2C(=O)c2cc([N+](=O)[O-])ccc21"
assaymetric = "TGI"
observedmeasurement = 39.9


Field: next molecule
Endpoint output: TGI of C[C@H]1[C@@H](OCC(CO[C@H]2O[C@@H]3O[C@@]4(C)CC[C@H]5[C@H](C)CC[C@@H]([C@H]2C)[C@@]35OO4)=NOCC(=O)O)OC2O[C@@]3(C)CC[C@H]4[C@H](C)CC[C@@H]1[C@@]24OO3 (some centres undefined) . Value?
15.8

====

system: 786-0 renal; test: NCI tumour cell line growth inhibition, 48 h
assayMetric: TGI

[[record]]
compound = "CC(C)(C)OC(=O)NC(Cc1ccc([N+](=O)[O-])cc1)C(=O)NC(CCCCNC(=O)OCc1ccccc1)C(=O)ON1C(=O)CCC1=O (centres undefined)"
testedsystem = "786-0 renal"
assaymetric = "TGI"
observedmeasurement = "> 100 µM"

[[record]]
compound = "Nc1cccc(OCc2nc(N)nc(N)c2-c2ccc(Cl)cc2)c1"
testedsystem = "786-0 renal"
assaymetric = "TGI"
observedmeasurement = "> 100 µM"

[[record]]
compound = "COc1ccc(O)c2c1C(=O)CCCC2=O"
testedsystem = "786-0 renal"
assaymetric = "TGI"
observedmeasurement = "> 100 µM"

[[record]]
compound = "Cc1nc(C(N)=S)sc1C(=O)/C=C/c1cccc(O)c1"
testedsystem = "786-0 renal"
assaymetric = "TGI"
observedmeasurement = "> 100 µM"

[[record]]
compound = "CCCC[C@@H](COC(=O)N(Cc1cccs1)Cc1cccs1)NC(=O)N[C@@H](CC(=O)OC)c1ccc2c(c1)OCO2"
testedsystem = "786-0 renal"
assaymetric = "TGI"
observedmeasurement = "> 100 µM"


Endpoint output: TGI of CCOC(=O)C(C[Si](C)(C)C)P(=O)(OCC)OCC (centres undefined) . Value?
> 100 µM

Try this compound next: CC(C)[Si](OC1=CCCCCC12C(=O)N(C)c1ccccc12)(C(C)C)C(C)C (centres undefined)
37.7 µM

Try this compound next: `CCOC(=O)c1c(SCCO)n(-c2ccccc2)c(=S)n(-c2ccccc2)c1=O`
> 100 µM

Try this compound next: `CN(O)C(=O)Cc1ccccc1`
> 100 µM

Try this compound next: `FC(F)(F)c1ccc(-c2cnc(Br)nc2NC2CCCCCC2)cc1`
> 100 µM

Try this compound next: COc1ccc(C(Nc2ncccn2)c2cc3c(cc2O)OCO3)cc1 (centres undefined)
39.3 µM

Try this compound next: `CCNCCNc1cc(-c2ccc(F)cc2)c(C#N)c2nc3ccccc3n12`
3.45 µM

Try this compound next: `COc1cc(Br)c(CC2=NCCc3cc(OC)c(OC)cc32)cc1OC`
> 100 µM

Try this compound next: `CCC(=O)NCCc1c[nH]c2ccc(OC)cc12`
> 100 µM

Try this compound next: CCCCCCCSCC(O)COC(c1ccccc1)(c1ccccc1)c1ccccc1 (centres undefined)
> 100 µM
